ASSAY: BSK_CASM3C_SRB: Viability Assessment in the BioMAP Diversity Plus: CASM3C Assay (AID 2283050);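 further: total protein by SRB staining as cytotoxicity measure in parallel cultures; cells exposed to compound for 24 h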
CONDITION_NOTES: primary human coronary artery smooth muscle cells
Calls of active or inactive are those of the source. How the source made its calls: active means hit-call score of the fitted dose curve at least 0.9, where 1 is the maximum; inactive means score below 0.9.
Your response should consist of one outcome taken from active, inactive

Reference set (2 entries):
# MOLECULE, GROUP_LABEL
measured = [
    ("CCCCCCCCCCCCCCOS(=O)(=O)O", "inactive"),
    ("O=C(O)CN(CC(=O)O)CC(=O)O", "inactive"),
]

Alright, here's another molecule for you.
Dear colleague, could you share the recorded outcome for CS(=O)(=O)c1ccc([C@@H](C[C@H]2CCC(=O)C2)C(=O)Nc2cnccn2)cc1Cl when you have a moment? inactive
